- Measurement Notes: Calculated distribution coefficient (logD) at pH 7.0
- Run Parameters: octanol/water
Measure: logD
Answers are plain numbers.

Worked examples follow.
{"columns": ["Chemical Smiles", "logD"],
 "data": [
  ["O=C(CCCSC[C@H](NC(=O)c1ccc(-c2ccccc2)cc1)C(=O)NCc1ccccc1)NO", 3.5],
  ["O=C(CCCSC[C@H](NC(=O)Cc1cccc2ccccc12)C(=O)NCc1ccccc1)NO", 2.8],
  ["O=C(CCCSC[C@H](NC(=O)CCc1ccccc1)C(=O)NCc1ccccc1)NO", 1.5],
  ["O=C(CCCSC[C@H](NC(=O)c1cc(=O)cco1)C(=O)NCc1ccccc1)NO", -0.3]
]}

Working through the 3 compounds below one at a time, give logD for each.
1. O=C(CCCSC[C@H](NC(=O)CCCc1ccccc1)C(=O)NCc1ccccc1)NO
2. O=C(CCCSC[C@H](NC(=O)c1cccnc1)C(=O)NCc1ccccc1)NO
3. O=C(CCCSC[C@H](NC(=O)C1CC1)C(=O)NCc1ccccc1)NO

1: 2.6; 2: 0.1; 3: 0

// O=C(CCCSC[C@H](NC(=O)c1ccccc1[N+](=O)[O-])C(=O)NCc1ccccc1)NO : logD value = 0.9
